Tested on: HCV replicon
test: microbe, parasite or virus in culture
Type: cell-based
assay conditions: Hepatitis C virus, 48 h, read-out: Replicon IC50s μM
test readout: IC50

1. Cc1nc2sc(C(=O)OC(C)(C)C)c(N)c2c(C)c1OCCN(C)C ... > 2 µM
2. CCc1c(C)nc2sc(S(C)(=O)=O)c(C#N)c2c1C ... > 2 µM
3. CCc1c(C)nc2sc(NC(=O)C3CCCC3)c(C#N)c2c1C ... > 2 µM
4. Cc1nc2sc(C(=O)OC(C)(C)C)c(N)c2c(C)c1OCCN1CCOCC1 ... > 2 µM
5. N#Cc1c(Br)sc2nc3c(c(-c4cccs4)c12)CCCCC3 ... > 2 µM
6. CCc1c(C)nc2sc(C(=O)OC(C)(C)C)c(N)c2c1C ... 0.5 to 2 µM
7. Nc1c(C(=O)Nc2ccccc2)sc2nc3c(cc12)CCCCC3 ... > 2 µM
8. CCc1c(C)nc2sc(-c3nnc(-c4ccccc4)o3)c(N)c2c1C ... 0.5 to 2 µM
9. CCc1c(C)nc2sc(N)c(C#N)c2c1C ... > 2 µM
